Where do the numbers come from? From patent US12209079B2.

molecular target: TDO in A172 cells (Homo sapiens, UniProt P48775); construct: endogenous in cells; host or cells: A172 cells; assay: TDO cell-based assay, kynurenine production in A172 cells; conditions: A 172; final concentration of the compound 10 μM; rate relative to culture without compound
Sequence (P48775 whole entry): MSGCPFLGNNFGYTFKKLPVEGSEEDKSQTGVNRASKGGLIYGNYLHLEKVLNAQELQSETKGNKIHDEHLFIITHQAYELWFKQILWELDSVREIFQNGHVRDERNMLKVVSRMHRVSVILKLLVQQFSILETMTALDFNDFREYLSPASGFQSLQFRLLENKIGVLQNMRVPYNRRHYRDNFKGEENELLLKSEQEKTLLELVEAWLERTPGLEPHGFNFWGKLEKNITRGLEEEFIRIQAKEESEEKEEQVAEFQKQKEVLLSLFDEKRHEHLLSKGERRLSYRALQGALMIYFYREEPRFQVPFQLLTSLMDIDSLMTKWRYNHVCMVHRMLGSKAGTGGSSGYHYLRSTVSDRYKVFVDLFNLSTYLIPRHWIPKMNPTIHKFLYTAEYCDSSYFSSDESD
Counter-ions that a name gives are not always drawn.
remaining activity at 10 µM vs 20%: less than gives True; not less than gives False.

Fc1ccc(CSC2=NCN(CCc3cccc(C(F)(F)F)c3)CN2)c(CSC2=NCN(CCc3cccc(C(F)(F)F)c3)CN2)c1 ... True
COc1ccc(/N=C(\N)SCc2cc(Cl)c(Cl)cc2CS/C(N)=N/c2ccc(OC)cc2)cc1 [Compound 124, dihydrobromide] ... True
CNC(=O)c1cccnc1CSC(=N)N [Compound 100, hydrobromide] ... False
N=C(N)SCc1cc(Br)ccc1C(=O)NCc1ccc(Cl)c(Cl)c1 [Compound 94, hydrobromide] ... False
N#Cc1ccc(CNC(=O)c2ccccc2CSC(=N)N)cc1 [Compound 96, hydrobromide] ... False
FC(F)(F)c1cccc(CCN2CN=C(SCc3cc(Cl)c(Cl)cc3CSC3=NCN(CCc4cccc(C(F)(F)F)c4)CN3)NC2)c1 ... True

Please turn your attention to the following entry.
Does the reported remaining activity at 10 µM of the following molecule sit strictly below 20%? `Fc1ccc(CN2CN=C(SCc3ccc(Br)cc3CSC3=NCN(Cc4ccc(F)c(Cl)c4)CN3)NC2)cc1Cl`
True
